# System: HOP-62
# measurement-notes: NCI tumour cell line growth inhibition, 48 h
The source made the active and inactive calls. Cut-off read from the data, not from the text of the source: active = GI50 up to about 1.1 µM and inactive = higher.
Lab note: assign the record to one of true (active), false (inactive)

Call for entry N#CC1(C2SCC[S+]2[O-])C2=C(C(=O)c3ccccc3C2=O)N2CCCC21 (configuration not stated) :
false

Call for entry "O=C1CCC(c2ccc(Cl)cc2)=NN1c1nsc2ccccc12" :
false

Call for entry CC12OC3CC(O1)C1(C=O)C4CCC5(C)C(c6ccc(=O)oc6)CCC5(O)C4CCC1(C3)O2 (configuration not stated) :
true

Call for entry CC(=O)Nc1ccc(S(=O)(=O)Nc2nc(-c3ccc(Cl)cc3)cc(N3N=C(c4ccc(Br)cc4)CC3c3ccccc3)n2)cc1 (configuration not stated) :
false

Call for entry CC(=O)Nc1ccc2[nH]c(C(=O)N3CC(CCl)c4c3cc(N)c3ccccc43)cc2c1 (configuration not stated) :
true

Call for entry "C[C@]12CC[C@H](O)C[C@@H]1CC[C@@H]1[C@@H]2CC[C@]2(C)[C@@H](c3cc(C(F)(F)F)[nH]n3)CC[C@@H]12" :
false

Call for entry CCCCCCCCCOCC(COP(=O)([O-])OCC[N+](C)(C)C)OC (configuration not stated) :
false

Call for entry Cc1ccc2c(c1)CC1(C2=O)[C@H](c2ccccc2)C2C(=O)c3ccc(C)cc3C2[C@H]1c1ccccc1 (some centres not stated) :
false

Call for entry "CCCCCCCCCCCCCCCCSS(C)(=O)=O" :
false

Call for entry C=C1C(=O)OC2/C=C(/CO)C3(O)CC(O)C(C)(CC(OC(=O)/C(C)=C/C)C12)O3 (configuration not stated) :
false

Call for entry C/C(=N\O)C(CN(C)C)C(c1ccccc1)c1c(O)c2ccccc2oc1=O (configuration not stated) :
false

Call for entry "Cc1ccc(-c2c(C#N)c(-c3ccc([N+](=O)[O-])cc3)c(C#N)c(=O)n2NS(=O)(=O)c2ccc(C)cc2)cc1" :
false

Call for entry "O=c1[nH]cnc2cccc(Cl)c12" :
false

Call for entry C/C(=N/Nc1ccc([N+](=O)[O-])cc1[N+](=O)[O-])C(CC(C(=O)NCc1ccccc1)/C(C)=N\Nc1ccc([N+](=O)[O-])cc1[N+](=O)[O-])C(=O)NCc1ccccc1 (configuration not stated) :
false

Call for entry "N#Cc1ccc(Nc2nc3[nH]cnc3c(=O)[nH]2)cc1" :
false

Call for entry "CN(C)CCNc1nc2c(no[n+]2[O-])c2ccccc12.[O-][Cl+3]([O-])([O-])O" :
false

Call for entry "Cc1c2ccccc2c(CSC(=N)N)c2ccccc12" :
true

Call for entry OC[C@H]1CC(c2nn[nH]n2)[C@H](O)[C@@H]1O (some centres not stated) :
false

Call for entry COc1ccc(C(=O)NCCC2CN(S(=O)(=O)C(F)(F)F)c3ccccc32)c(OC)c1 (configuration not stated) :
false

Call for entry COc1ccc(-n2cnc3c(NC(CCSC)C(=O)O)ncnc32)cc1 (configuration not stated) :
false

Call for entry "O=C1C=CC(S(=O)(=O)C2=C/C(=C/Nc3ccc(Cl)cc3)C(=O)C=C2)=C/C1=C/Nc1ccc(Cl)cc1" :
false

Call for entry "CCOC(=O)Cc1nc2cc(F)c(F)cc2[nH]c1=O" :
false

Call for entry "COC(=NCCC1=CCCCC1)OC" :
false

Call for entry "O=C1C2=C(CC3=C(C2)CS(=O)(=O)C3)C(=O)C2=C1CC1=C(C2)CS(=O)(=O)C1" :
false

Call for entry "Clc1ccc(Cl)c2[s+]snc12" :
false

Call for entry C=C1CC2(CC(c3ccccc3C)OC(c3ccccc3C)C2)OC1=O (configuration not stated) :
false

Call for entry "COc1cc(OC)cc(Oc2nc3ccccc3nc2C(F)(F)F)c1" :
false

Call for entry "CCCCN(C)C(=O)C1=C(C)NC(C)=C(C(=O)N(C)CCCC)C1" :
false

Call for entry "CC(C)(NO)/C(=N\O)c1ccccc1" :
false

Call for entry "CCNc1nnc(CSc2nc(-c3ccccc3)c(-c3ccccc3)[nH]2)s1" :
false

Call for entry "O=c1c2cccnc2ncn1CCN1CCCCC1" :
false

Call for entry O=c1[nH]c(=O)n(C2OC(CO)C(O)C2O)cc1OCCCc1ccccc1 (configuration not stated) :
false

Call for entry Cc1ccc(S(=O)(=O)C2=C([Si](C)(C)C)C3CC2[C@@H]2C4C=CC(CC4)[C@H]32)cc1 (some centres not stated) :
false

Call for entry "C=CCn1c(=O)c(Br)nn(CCOCP(=O)(OCC)OCC)c1=O" :
false

Call for entry "COc1ccc(OCC(=N/NC(=O)c2ccncc2)/N=C/c2ccncc2)cc1" :
false

Call for entry "Cc1ccc2nc(CN3CCCCC3)cc(=O)n2c1" :
false

Call for entry "CCOC(=O)c1c(NNc2ccccc2)nc2ccccc2c1-c1ccccc1" :
false
